# Test system: MEK3
# Construct: gene MAP2K3
# experimental-setup: concentration: 1 μM, replicates: in singlicate; n = 1
quantity-name: %Inh
I'd appreciate it if you included the unit after the number.

compound	%Inh
Cc1nnc(-c2ccc3occ(-c4ccc(S(C)=O)cc4)c3c2)[nH]1 (centres unmarked)	19%
O=C(Nc1ccc2c(c1)OCO2)NC1CCN(c2ccnc(Nc3ccc(F)cc3)n2)C1 (centres unmarked) [GSK1379724]	0%
Cl.c1ccc(-c2n[nH]cc2-c2ccnc(-c3ccc(CN4CCOCC4)cc3)c2)nc1 [GW776245]	0%

Dear reader, for each entry below, please note its %Inh.
1. Fc1cc(Cl)ccc1Nc1ccnc2cc(I)ccc12 [GW551191]
2. COc1ccccc1-c1ccc2c(NC(=O)C3CC3)n[nH]c2n1 [SB-711239]

Ans:
1: 0%; 2: 16%

---

# System: ARK5
# Construct: gene NUAK1
quantity-name: Kd

Q: Item under review: Cc1ccc(-c2cc(-c3c[nH]nc3-c3ccccn3)ccn2)cc1 . Reported Kd?
Ans: > 10 µM

---

# System: AMPK-alpha1
# Construct: gene PRKAA1
quantity-name: Kd

Q: Item under review: Cc1nnc(-c2ccc3occ(-c4ccc(S(C)=O)cc4)c3c2)[nH]1 (stereo not shown) . Reported Kd?
Ans: > 10 µM

---

Provide the recorded %Inh for the entries that follow.
# Tested on: NEK11
# experimental-setup: concentration: 1 μM, replicates: in singlicate; n = 1

These solved cases illustrate the format of a correct answer.
compound	%Inh
Cn1ccc2ncnc(Oc3ccc(NC(=O)Nc4ccccc4)cc3)c21	0%
Clc1cc(Cl)cc(Nc2ccnc(Nc3cc(Cl)cc(Cl)c3)n2)c1	8%
Cc1nnc(-c2ccc3occ(-c4ccc(S(C)=O)cc4)c3c2)[nH]1 (centres unmarked)	0%
Cc1cc(N2Cc3ccccc3C2)nc(Nc2ccc(S(=O)(=O)N3CCOCC3)cc2)n1.Cl	0%

Q: Item under review: CN(C)CCN(C)C(=O)c1cc(-c2ccncc2)c(-c2ccc(Cl)c(O)c2)o1.Cl.Cl . Reported %Inh?
Ans: 29%

---

# Test system: MINK
# Construct: gene MINK1
# experimental-setup: concentration: 1 μM, replicates: in singlicate; n = 1
Provide the recorded %Inh for the entries that follow.
Give bare numbers, in %.

These solved cases illustrate the format of a correct answer.
molecule	%Inh, %
Cl.c1ccc(-c2n[nH]cc2-c2ccnc(-c3ccc(CN4CCOCC4)cc3)c2)nc1 [GW776245]	8
Cc1c(Cn2ccn3c(=O)cc(N4CCOCC4)nc23)cccc1C(F)(F)F [GSK2289044]	1
Cc1cccc(-c2nc(Nc3cccc(C(N)=O)c3)c3ccccc3n2)n1 [GW876019]	5

Dear reader, for each entry below, please note its %Inh.
1. CCCc1ccc(S(=O)(=O)NC2CCN(c3ccnc(Nc4ccc(F)cc4)n3)C2)cc1 (centres unmarked) [GSK1379715]
2. Cn1ccc2ncnc(Oc3ccc(NC(=O)Nc4ccccc4)cc3)c21
3. COc1ccc(Nc2nccc(NCCNC(=O)Nc3ccccc3F)n2)cc1 [GSK1379901]
4. COC(=O)c1c(-c2ccccc2)c2cc(C(=O)O)ccc2c(=O)n1Cc1ccccc1
5. O=C(O)COc1ncnc2cc(-c3ccc4[nH]ncc4c3)sc12
6. Nc1nc(-c2nccs2)c(-c2ccnc3ccccc23)s1 [GW693542]
7. Cc1ccc(NC(=O)Nc2cccc(Cl)c2)cc1-c1ccc(C(=O)Nc2ccncc2)cc1 [GSK1398468]
8. Cc1cc(NCC(c2ccccc2)c2ccccc2)nc(NCc2ccc(C(F)(F)F)cc2)n1 [GW497681]

Ans:
1: 0; 2: 16; 3: 11; 4: 0; 5: 12; 6: 51; 7: 14; 8: 0

---

# Tested on: ASK2
# Construct: gene MAP3K6
# experimental-setup: concentration: 1 μM, replicates: in singlicate; n = 1
quantity-name: %Inh (%)
Give bare numbers, in %.

molecular-string	%Inh / %
Cc1ccc(NC(=O)Nc2cccc(Cl)c2)cc1-c1ccc(C(=O)Nc2ccncc2)cc1	0
Cc1c(O)cccc1Nc1ccnc2ccc(C(F)(F)F)cc12.Cl	0
Clc1cc(Cl)cc(Nc2ccnc(Nc3cc(Cl)cc(Cl)c3)n2)c1	3

Now look at this one.
Q: Item under review: COc1cccc(-c2cc(-c3c[nH]nc3-c3ccccn3)ccn2)c1 . Reported %Inh?
Ans: 27

---

# Test system: CHEK2
# experimental-setup: concentration: 1 μM, replicates: in singlicate; n = 1
Provide the recorded %Inh for the entries that follow.
I'd appreciate it if you included the unit after the number.

These solved cases illustrate the format of a correct answer.
molecule	%Inh
CC1=C(C(=O)Nc2cc3cn[nH]c3cc2F)C(c2ccc(C(F)(F)F)cc2)CC(=O)N1 (stereo not drawn)	0%
Cc1cc(N2Cc3ccccc3C2)nc(Nc2ccc(S(=O)(=O)N3CCOCC3)cc2)n1.Cl	0%
O=S(=O)(c1ccc(-c2ccnc3[nH]ccc23)cc1)N1CCCC1	15%
Cc1cc(NCC(c2ccccc2)c2ccccc2)nc(NCc2ccc(C(F)(F)F)cc2)n1	18%

Dear reader, for each entry below, please note its %Inh.
1. Cn1ccc2ncnc(Oc3ccc(Nc4nc5ccccc5[nH]4)cc3)c21
2. Cc1cccc(-c2nc(C)cc(Nc3ccncc3)n2)n1
3. Cc1nnc(-c2ccc3occ(-c4ccc(S(C)=O)cc4)c3c2)[nH]1 (stereo not drawn)
4. Cc1ccccc1-n1cnc2c(N)ncnc21
5. COc1ccc(Nc2nccc(-c3cccc(NC(=O)c4cc5cc(F)ccc5[nH]4)c3)n2)cc1

Ans:
1. 23%
2. 0%
3. 10%
4. 0%
5. 37%

---

Provide the recorded %Inh for the entries that follow.
# Test system: TNK1
# experimental-setup: concentration: 1 μM, replicates: in singlicate; n = 1
Give bare numbers, in %.

These solved cases illustrate the format of a correct answer.
compound	result-units	%Inh
COc1ccc(CNC(=O)NC2CCN(c3ccnc(Nc4cc(OC)c(OC)c(OC)c4)n3)C2)cc1 (stereo not drawn)	%	0
Fc1cc(Cl)ccc1Nc1ccnc2cc(I)ccc12	%	6
Cl.Oc1ccc(-c2nc(-c3ccccc3)[nH]c2-c2ccncc2)cc1	%	0
COC(=O)c1c(-c2ccccc2)c2cc(C(=O)O)ccc2c(=O)n1Cc1ccccc1	%	0

Dear reader, for each entry below, please note its %Inh.
1. Cl.O=C(Nc1cccc(-c2nn3ncccc3c2-c2ccnc(Nc3cccnc3)n2)c1)c1c(F)cccc1F
2. O=C(Nc1n[nH]c2nc(-c3nccs3)c(Br)cc12)C1CCCC1
3. Fc1cccc(COc2nnc(-c3ccc4c(c3)CCO4)o2)c1
4. CCCc1ccc(S(=O)(=O)NC2CCN(c3ccnc(Nc4ccc(F)cc4)n3)C2)cc1 (stereo not drawn)

Ans:
1: 49; 2: 2; 3: 0; 4: 0

Q: Give TNK1 %Inh for COc1ccc2nc(-c3cccc(C)n3)nc(Nc3ccncc3)c2c1
Ans: 0

---

# Tested on: CDK7
# experimental-setup: concentration: 1 μM, replicates: in singlicate; n = 1
quantity-name: %Inh (%)
One number for each entry, in %.

These solved cases illustrate the format of a correct answer.
molecule	%Inh [%]
O=C(Nc1n[nH]c2cc(-c3cccc(F)c3F)ccc12)C1CC1 [SB-733894]	17
CC(=O)Nc1nc2cnc(Nc3cc(NC(=O)c4cccc(CCC#N)c4)ccc3C)nc2s1	39
COc1ccc(Nc2nccc(-c3cccc(NC(=O)c4cc5cc(F)ccc5[nH]4)c3)n2)cc1 [GSK1229782]	4
Cc1cccc(-c2nc(Nc3ccncc3)c3ccccc3n2)n1 [GW855857]	0
COc1cccc(NC(=O)NC2CCN(c3ccnc(Nc4ccc(F)cc4)n3)C2)c1 (centres unmarked) [GSK1379721]	0
Cl.NC(=O)c1cccc(Nc2nccc(Nc3ccc(Oc4cccc(Cl)c4)c(Cl)c3)n2)c1 [GW659008]	0
Fc1cc(Cl)ccc1Nc1ccnc2cc(I)ccc12 [GW551191]	0
COc1cc2nccc(Nc3ccc(NC(=O)c4ccc(C)cc4)c(O)c3)c2cc1OC.Cl [GW440132]	75

Dear reader, for each entry below, please note its %Inh.
1. COc1ccc2nc(-c3cccc(C)n3)nc(Nc3ccncc3)c2c1 [GSK204919]
2. Fc1cc(Cl)ccc1Nc1ccnc2cc(-c3ccc(CN4CCCCC4)o3)ccc12 [GW560116]

Ans:
0
0

Dear reader, for each entry below, please note its %Inh.
1. Cc1c(O)cccc1Nc1ccnc2ccc(C(F)(F)F)cc12.Cl [GW466413]
2. CS(=O)(=O)c1ccc(-c2nc3n(c2-c2ccncc2)CCC3)cc1 [SKF-105942]
3. Cn1ccc2ncnc(Oc3ccc(NC(=O)Nc4ccccc4)cc3)c21
4. O=C(Nc1ccccc1)Nc1cccc(Oc2ccc3nccn3n2)c1
5. CC(C)(C)c1ccc(C(=O)Nc2cn3cc(-c4cccnc4)ccc3n2)cc1
6. Cc1c(Cn2ccn3c(=O)cc(N4CCOCC4)nc23)cccc1C(F)(F)F [GSK2289044]
7. Cc1ccc(NC(=O)Nc2cccc(Cl)c2)cc1-c1ccc(C(=O)Nc2ccncc2)cc1 [GSK1398468]
8. C[C@@H]1CCCCN1c1cc(-c2ccc3c(N)n[nH]c3c2)nc(N)n1 [GSK2258759]

Ans:
1: 0; 2: 0; 3: 13; 4: 0; 5: 35; 6: 0; 7: 0; 8: 0

Dear reader, for each entry below, please note its %Inh.
1. Cl.c1ccc(-c2n[nH]cc2-c2ccnc(-c3ccc(CN4CCOCC4)cc3)c2)nc1 [GW776245]
2. O=C(O)COc1ncnc2cc(-c3ccc4[nH]ncc4c3)sc12
3. O=C(Nc1n[nH]c2nc(-c3nccs3)c(Br)cc12)C1CC1 [SB-742251]
4. CC(C)(C)c1ccc(C(=O)Nc2cn3cc(Cl)ccc3n2)cc1
5. Cn1ccc2ncnc(Oc3cccc(C(=O)Nc4ccccc4)c3)c21
6. COC(=O)c1c(-c2ccccc2)c2cc(OC)ccc2c(=O)n1Cc1ccccc1
7. O=S(=O)(c1ccc(-c2ccnc3[nH]ccc23)cc1)N1CCCC1 [GSK846226]

Ans:
1: 0; 2: 30; 3: 12; 4: 0; 5: 4; 6: 15; 7: 2

Q: Item under review: Cc1ccc(-c2cc(-c3c[nH]nc3-c3ccccn3)ccn2)cc1 [GW684088] . Reported %Inh?
Ans: 9
